- system tested: UniProt Q99500
- Sequence (Q99500 whole entry): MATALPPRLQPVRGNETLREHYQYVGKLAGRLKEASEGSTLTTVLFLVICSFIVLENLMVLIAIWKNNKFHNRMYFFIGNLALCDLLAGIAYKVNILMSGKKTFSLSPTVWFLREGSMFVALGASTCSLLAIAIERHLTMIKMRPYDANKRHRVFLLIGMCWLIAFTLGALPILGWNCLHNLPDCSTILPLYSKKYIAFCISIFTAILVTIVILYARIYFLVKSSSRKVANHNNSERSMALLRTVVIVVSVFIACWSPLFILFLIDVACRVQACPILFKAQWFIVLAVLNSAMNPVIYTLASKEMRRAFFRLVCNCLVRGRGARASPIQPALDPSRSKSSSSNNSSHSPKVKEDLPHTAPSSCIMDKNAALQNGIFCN
metric name: EC50 (nM)

CCCCCCCCCCCCC/C=C/[C@@H](O)[C@@H](N)COP(=O)(O)O [S1P, Sphingosine‐1‐phosphate, reference compound]; 0.1
CCc1cc(-c2noc(-c3cc(OC)nc(C4CCCC4)c3)n2)cc(C)c1OC[C@@H](O)CO [Cenerimod]; 228

====

- system tested: S1P1 receptor (Homo sapiens, UniProt P21453)
- Sequence (P21453 whole entry): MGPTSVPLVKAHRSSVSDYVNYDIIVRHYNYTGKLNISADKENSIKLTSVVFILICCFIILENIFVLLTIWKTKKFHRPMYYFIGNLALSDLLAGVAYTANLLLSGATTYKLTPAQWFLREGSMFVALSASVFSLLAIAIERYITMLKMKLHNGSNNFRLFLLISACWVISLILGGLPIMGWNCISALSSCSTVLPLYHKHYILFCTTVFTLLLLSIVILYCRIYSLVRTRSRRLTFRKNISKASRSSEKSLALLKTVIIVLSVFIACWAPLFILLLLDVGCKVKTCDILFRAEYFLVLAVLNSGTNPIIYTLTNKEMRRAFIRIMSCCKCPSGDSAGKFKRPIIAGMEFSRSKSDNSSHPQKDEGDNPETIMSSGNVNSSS
- protocol summary: Ca2+ signaling in CHO cells expressing recombinant human S1P1 receptor
- Format: cell-based
metric name: EC50 (nM)

CCc1cc(-c2noc(-c3cc(OC)nc(C4CCCC4)c3)n2)cc(C)c1OC[C@@H](O)CO; 124

Each recorded value in this set is attributed to paper PMC5723703.
